# Tested on: HEK293T viability, CellTiter-Glo ATP luminescence, 48 h
# PROTOCOL: HEK293T cell viability reduction, dose response, cytotoxicity control for LMP1 NF-kB inhibitor project, CellTiter-Glo luminescence, cherry-picks (AID 504861)
The source made the active and inactive calls.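 How the source made its calls: active means compounds lowering cell viability signal with fitted half-maximal concentration at most ten times their highest tested concentration; inconclusive means flat fit with 30 to 70% signal loss, or poor fit; inactive means the rest.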
PROPERTY LABEL: AC50

[[record]]
molecule = "CC(C)OC(=O)c1ccc(NCc2cc(O)ccc2O)cc1Cl"
property_label = "AC50"
measurement = "6.74 µM"

[[record]]
molecule = "COc1ccc(C(=O)Nn2c(SCC(=O)NC3CCCCC3)nc3ccccc3c2=O)cc1"
property_label = "AC50"
measurement = "> 26 µM (inactive)"

[[record]]
molecule = "Oc1ccc2ccccc2c1N=Nc1ccccn1"
property_label = "AC50"
measurement = "3.42 µM"

[[record]]
molecule = "CC(=NNC(=S)N1CCCC1)c1ccccn1"
property_label = "AC50"
measurement = "4.56 µM"

[[record]]
molecule = "Cc1ccc(C(=O)/C=C/C(=O)c2ccc(C)cc2)cc1"
property_label = "AC50"
measurement = "7.08 µM"

[[record]]
molecule = "O=[N+]([O-])c1c(Nc2cccc(O)c2)cc(Cl)c2nonc12"
property_label = "AC50"
measurement = "4.39 µM"

[[record]]
molecule = "COc1cccc(/C=N/Nc2ncnc(Cl)c2N)c1O"
property_label = "AC50"
measurement = "3.23 µM"

[[record]]
molecule = "O=C(CCc1ccccc1)NC(c1cccs1)c1cc(Cl)c2cccnc2c1O (configuration not stated)"
property_label = "AC50"
measurement = "9.28 µM"

[[record]]
molecule = "CCN(CC)c1ccc(/C=N/Nc2nc(C)cc(=O)[nH]2)c(O)c1"
property_label = "AC50"
measurement = "1.41 µM"

[[record]]
molecule = "COc1cc([C@@H]2c3cc4c(cc3[C@@H](O[C@@H]3O[C@@H]5CO[C@@H](C)O[C@H]5[C@H](O)[C@H]3O)[C@H]3COC(=O)[C@H]23)OCO4)cc(OC)c1O"
property_label = "AC50"
measurement = "26.5 µM"

[[record]]
molecule = "CCc1cc2c(N3CCN(c4ccccc4)CC3)ncnc2s1"
property_label = "AC50"
measurement = "26.4 µM"

[[record]]
molecule = "CC(=NNC(=S)Nc1ccccc1Cl)c1ccccn1"
property_label = "AC50"
measurement = "0.922 µM"

[[record]]
molecule = "CCN(CC)S(=O)(=O)c1cccc(NC(=O)Nc2cccc(C(F)(F)F)c2)c1"
property_label = "AC50"
measurement = "19.1 µM"

[[record]]
molecule = "CCOc1cccc(/C=N/Nc2ccc(S(=O)(=O)N(CC)CC)cn2)c1O"
property_label = "AC50"
measurement = "1.69 µM"

[[record]]
molecule = "CCN(CC)c1ccc(/C=N/NC(=O)c2cnccn2)c(O)c1"
property_label = "AC50"
measurement = "3.21 µM"

[[record]]
molecule = "CCCCCN=Cc1c(C)[nH]n(-c2nc3ccccc3s2)c1=O"
property_label = "AC50"
measurement = "1.33 µM"

[[record]]
molecule = "COc1ccc(/C=N/Nc2cc(C)nc3ccc(OC)cc23)c(OC)c1"
property_label = "AC50"
measurement = "5.04 µM"

[[record]]
molecule = "CCCC(=O)NC(c1ccccc1Cl)c1ccc2cccnc2c1O (configuration not stated)"
property_label = "AC50"
measurement = "4.36 µM"

[[record]]
molecule = "CCN1CCN(Cc2ccc(NC(=O)c3ccc(C)c(/C=C/c4cnc(Nc5cc(N6CCNCC6)nc(C)n5)cn4)c3)cc2C(F)(F)F)CC1"
property_label = "AC50"
measurement = "14.3 µM"

[[record]]
molecule = "CCC(C)Nc1nc(-c2ccccn2)nc2ccccc12 (configuration not stated)"
property_label = "AC50"
measurement = "4.04 µM"

[[record]]
molecule = "CC(=O)NC(c1ccc2ccccc2c1)c1ccc2cccnc2c1O (configuration not stated)"
property_label = "AC50"
measurement = "1.32 µM"

[[record]]
molecule = "O=C(Nc1nnc(SCc2ccc(F)cc2)s1)c1ccccn1"
property_label = "AC50"
measurement = "25.9 µM"


Cited source: PubChem BioAssay AID504861
